Where these numbers come from: paper PMC6478789

In this section we review reported Kd values for a set of molecules.
- target or test system: PBRM1(2) (Homo sapiens, UniProt Q86U86)
- Sequence (Q86U86 177-287 limits assumed): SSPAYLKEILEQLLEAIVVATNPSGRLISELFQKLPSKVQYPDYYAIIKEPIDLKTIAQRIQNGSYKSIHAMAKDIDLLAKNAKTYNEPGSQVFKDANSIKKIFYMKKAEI
- experiment: BROMOscan ligand-binding assay
- test settings: KD (BROMOscan), sheet prints no unit (nM)

In the examples that follow, each entry is paired with its recorded Kd.
molecule: COc1ccc(CCc2nc3cc(-c4c(C)noc4C)ccc3n2C[C@H](C)N2CCOCC2)cc1Cl [SGC-CBP30]
value measured: > 30000 nM
//
molecule: CCC(=O)N1CCOc2c(cc(-c3ccc(OC)c(OC)c3)cc2OCC2CCCN(C)C2)C1 (stereo not drawn) [I-CBP112]
value measured: > 30000 nM

Now look at this entry.
Problem: Recorded Kd of CCCOc1ccn2c(C(C)=O)cc(-c3ccccc3S(C)(=O)=O)c2c1 [GSK2801] , please.
Result: > 30000 nM

* * *

- target or test system: PRMT1 (Homo sapiens, UniProt Q99873)
- Construct: purchased DiscoverX BROMOscan (bromodomains); SGC in-house methyltransferase panel
- Sequence (Q99873 whole entry): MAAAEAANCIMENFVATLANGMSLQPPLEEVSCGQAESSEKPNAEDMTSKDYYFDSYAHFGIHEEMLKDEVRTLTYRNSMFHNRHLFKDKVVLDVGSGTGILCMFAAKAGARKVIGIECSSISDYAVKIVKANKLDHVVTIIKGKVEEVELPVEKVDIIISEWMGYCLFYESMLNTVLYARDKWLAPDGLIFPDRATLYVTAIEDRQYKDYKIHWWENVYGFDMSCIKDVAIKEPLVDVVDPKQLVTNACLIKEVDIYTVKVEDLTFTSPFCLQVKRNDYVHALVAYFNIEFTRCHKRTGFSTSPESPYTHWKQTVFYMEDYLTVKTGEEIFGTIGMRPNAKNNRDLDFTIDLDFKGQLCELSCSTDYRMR
- experiment: Methyl transferase scintillation proximity assay
- Assay type: biochemical
- test settings: average of two measurements, read-out: MTases Inhibition (%)
In this section we review reported inhibition at 10 µM values for a set of compounds.
Give the quantity in %, number only.

In the examples that follow, each entry is paired with its recorded inhibition at 10 µM.
smiles entry: COc1cc(Cl)c(C(=O)N[C@@H](CN[C@H]2CC[C@@H](N)CC2)Cc2ccc(C#N)cc2)cc1-c1ccc(CN[C@H](C)c2ccc(C)cc2)o1
value units: %
inhibition at 10 µM: 15

smiles entry: CN1C[C@H](Nc2cnn(C)c(=O)c2Br)C[C@H](c2ccccc2)C1
value units: %
inhibition at 10 µM: 4

Problem: Recorded inhibition at 10 µM of Cc1c(NC(=O)c2cc(C(N)=O)nc3cc(F)ccc23)c(C(F)(F)F)nn1Cc1ccc(C(C)(C)C)cc1 , please.
Result: 0

Problem: Recorded inhibition at 10 µM of CN(C)CCCOc1ccc(-c2cc(NCCCn3cccn3)nc(S(C)(=O)=O)n2)cc1 , please.
Result: 0

Problem: Recorded inhibition at 10 µM of Cc1nnc2c3ccccc3c(N[C@@H](C)[C@H](c3ccccc3)N(C)C)nn12 , please.
Result: -2

Problem: Recorded inhibition at 10 µM of Cc1c(NC(=O)c2cc(C(N)=O)nc3cc(F)ccc23)c(C(F)(F)F)nn1Cc1ccc(C#N)cc1 , please.
Result: 2

Problem: Recorded inhibition at 10 µM of CO[C@H]1CNC[C@@H](OCC2CCC(F)(F)CC2)[C@@H]1Nc1ncc(-c2cncc(C)c2)c2cc(C)c(=O)[nH]c12 , please.
Result: 3

* * *

- target or test system: BRPF3 (Homo sapiens, UniProt Q9ULD4)
- Sequence (Q9ULD4 589-693 limits assumed): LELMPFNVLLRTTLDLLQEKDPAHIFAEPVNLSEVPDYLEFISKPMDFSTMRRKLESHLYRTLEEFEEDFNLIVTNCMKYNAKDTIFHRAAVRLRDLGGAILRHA
- experiment: BROMOscan ligand-binding assay
- test settings: BROMOscan, BRPF3
In this section we review reported Kd values for a set of compounds.

compound: O=C(C=CN1[C@H]2CC[C@@H]1c1ncnc(NC3CC3)c1C2)c1ccccc1O [PFI-3 D1]
Kd: > 30 µM

Now look at this entry.
Problem: Recorded Kd of Cc1cc(=O)n(C)c2cc(N3C(=O)CC[C@H](NS(=O)(=O)CC(C)C)[C@H]3c3ccc(Cl)cc3)ccc12 , please.
Result: > 50 µM

* * *

- target or test system: EP300 (Homo sapiens, UniProt Q09472)
- Sequence (Q09472 whole entry, species assumed): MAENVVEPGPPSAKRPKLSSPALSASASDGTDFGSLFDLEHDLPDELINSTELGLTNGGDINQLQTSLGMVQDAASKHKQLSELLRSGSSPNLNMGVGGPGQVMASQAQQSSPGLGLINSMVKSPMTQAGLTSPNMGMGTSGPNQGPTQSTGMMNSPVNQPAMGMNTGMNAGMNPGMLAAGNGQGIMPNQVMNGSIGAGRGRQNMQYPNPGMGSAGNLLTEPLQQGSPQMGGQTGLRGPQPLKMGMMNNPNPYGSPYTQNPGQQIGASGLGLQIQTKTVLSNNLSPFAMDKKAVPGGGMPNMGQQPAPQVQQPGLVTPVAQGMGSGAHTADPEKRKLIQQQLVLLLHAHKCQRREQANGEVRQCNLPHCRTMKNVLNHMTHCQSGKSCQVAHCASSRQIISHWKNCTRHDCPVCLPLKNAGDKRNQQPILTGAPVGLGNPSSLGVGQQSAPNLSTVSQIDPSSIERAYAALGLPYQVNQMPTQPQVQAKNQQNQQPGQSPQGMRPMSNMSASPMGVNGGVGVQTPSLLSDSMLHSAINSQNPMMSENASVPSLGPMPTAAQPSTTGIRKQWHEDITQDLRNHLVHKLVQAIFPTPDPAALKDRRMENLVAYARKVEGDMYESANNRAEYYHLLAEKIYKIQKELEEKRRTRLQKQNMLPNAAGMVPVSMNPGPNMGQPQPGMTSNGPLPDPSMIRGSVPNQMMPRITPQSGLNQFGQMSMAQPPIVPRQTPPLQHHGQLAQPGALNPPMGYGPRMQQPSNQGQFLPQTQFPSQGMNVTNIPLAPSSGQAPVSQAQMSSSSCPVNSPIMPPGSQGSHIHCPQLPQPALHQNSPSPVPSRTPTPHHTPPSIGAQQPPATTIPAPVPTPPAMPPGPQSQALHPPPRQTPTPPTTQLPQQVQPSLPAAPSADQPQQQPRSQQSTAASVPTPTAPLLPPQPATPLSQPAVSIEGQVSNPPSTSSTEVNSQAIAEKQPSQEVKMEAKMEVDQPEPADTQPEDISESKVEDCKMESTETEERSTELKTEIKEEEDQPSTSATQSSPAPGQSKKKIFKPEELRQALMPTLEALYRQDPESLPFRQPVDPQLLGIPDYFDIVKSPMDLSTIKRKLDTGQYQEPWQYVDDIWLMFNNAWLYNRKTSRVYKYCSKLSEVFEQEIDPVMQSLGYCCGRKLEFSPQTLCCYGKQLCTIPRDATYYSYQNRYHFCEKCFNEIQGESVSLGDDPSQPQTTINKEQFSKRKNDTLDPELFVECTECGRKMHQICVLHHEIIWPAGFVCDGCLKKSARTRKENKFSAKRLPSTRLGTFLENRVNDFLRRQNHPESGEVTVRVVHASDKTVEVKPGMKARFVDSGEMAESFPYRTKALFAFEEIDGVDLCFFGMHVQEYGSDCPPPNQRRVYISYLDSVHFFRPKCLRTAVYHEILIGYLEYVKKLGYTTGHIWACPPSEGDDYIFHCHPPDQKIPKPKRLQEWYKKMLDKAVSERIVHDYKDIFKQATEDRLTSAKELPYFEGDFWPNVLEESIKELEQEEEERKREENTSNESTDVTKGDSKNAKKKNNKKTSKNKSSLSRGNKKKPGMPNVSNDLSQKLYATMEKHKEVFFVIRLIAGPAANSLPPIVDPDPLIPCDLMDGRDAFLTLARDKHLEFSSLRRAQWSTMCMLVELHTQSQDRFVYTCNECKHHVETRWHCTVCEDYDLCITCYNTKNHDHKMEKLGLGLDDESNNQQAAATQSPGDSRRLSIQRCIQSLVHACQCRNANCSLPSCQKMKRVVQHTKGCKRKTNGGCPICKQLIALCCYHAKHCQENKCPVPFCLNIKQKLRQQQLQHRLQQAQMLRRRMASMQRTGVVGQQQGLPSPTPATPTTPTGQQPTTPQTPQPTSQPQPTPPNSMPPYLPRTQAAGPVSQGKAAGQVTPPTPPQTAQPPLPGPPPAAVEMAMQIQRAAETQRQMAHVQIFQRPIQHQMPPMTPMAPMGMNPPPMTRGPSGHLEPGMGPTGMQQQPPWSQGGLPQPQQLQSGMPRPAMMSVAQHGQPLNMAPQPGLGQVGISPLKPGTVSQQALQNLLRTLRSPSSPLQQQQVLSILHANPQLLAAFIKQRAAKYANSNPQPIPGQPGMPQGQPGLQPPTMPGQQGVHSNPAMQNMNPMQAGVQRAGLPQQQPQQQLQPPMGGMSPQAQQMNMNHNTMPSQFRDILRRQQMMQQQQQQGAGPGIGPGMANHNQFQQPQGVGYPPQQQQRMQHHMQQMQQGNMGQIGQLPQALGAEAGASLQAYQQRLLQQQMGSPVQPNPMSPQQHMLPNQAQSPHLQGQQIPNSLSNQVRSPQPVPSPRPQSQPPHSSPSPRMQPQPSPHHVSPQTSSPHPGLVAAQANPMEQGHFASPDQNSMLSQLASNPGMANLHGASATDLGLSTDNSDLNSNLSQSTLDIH
- experiment: Histone acetyltransferase (HAT) activity assay;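 note: selectivity screen of bromodomain probe compounds against histone acetyltransferases, with enzyme activity given in percent for compounds tested at 1 and 10 µM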
- Type: biochemical
- test settings: 10µM; read-out: HATs Activity (%)
measured metric: activity at 10 µM (%)
Give the quantity in %, number only.

In the examples that follow, each entry is paired with its recorded activity at 10 µM.
compound: Cc1cc2c(cc1N1C(=O)c3cccc4c(CCCO)ccc(c34)C1=O)n(C)c(=O)n2C [BAY-299]
value units: %
activity at 10 µM: 93
--
compound: CN(C)CCCOc1ccc(-c2cc(NCCCn3cccn3)nc(S(C)(=O)=O)n2)cc1 [TP-238]
value units: %
activity at 10 µM: 95
--
compound: Cc1c(NC(=O)c2cc(C(N)=O)nc3cc(F)ccc23)c(C(F)(F)F)nn1Cc1ccc(C(C)(C)C)cc1 [BAY-588]
value units: %
activity at 10 µM: 99
--
compound: COc1cc(Cl)c(C(=O)N[C@@H](CN[C@H]2CC[C@@H](N)CC2)Cc2ccc(C#N)cc2)cc1-c1ccc(CN[C@H](C)c2ccc(C)cc2)o1 [BAY-850]
value units: %
activity at 10 µM: 87
--
compound: CO[C@H]1CNC[C@@H](OCC2CCC(F)(F)CC2)[C@@H]1Nc1ncc(-c2cncc(C)c2)c2cc(C)c(=O)[nH]c12 [GSK8814]
value units: %
activity at 10 µM: 102
--
compound: Cc1nnc2c3ccccc3c(N[C@@H](C)[C@H](c3ccccc3)N(C)C)nn12 [L-Moses]
value units: %
activity at 10 µM: 90

Now look at this entry.
Problem: Recorded activity at 10 µM of Cc1c(NC(=O)c2cc(C(N)=O)nc3cc(F)ccc23)c(C(F)(F)F)nn1Cc1ccc(C#N)cc1 [BAY-876] , please.
Result: 95

* * *

- target or test system: NSD3 (Homo sapiens)
- Construct: purchased DiscoverX BROMOscan (bromodomains); SGC in-house methyltransferase panel
- Sequence (Q9BZ95 whole entry): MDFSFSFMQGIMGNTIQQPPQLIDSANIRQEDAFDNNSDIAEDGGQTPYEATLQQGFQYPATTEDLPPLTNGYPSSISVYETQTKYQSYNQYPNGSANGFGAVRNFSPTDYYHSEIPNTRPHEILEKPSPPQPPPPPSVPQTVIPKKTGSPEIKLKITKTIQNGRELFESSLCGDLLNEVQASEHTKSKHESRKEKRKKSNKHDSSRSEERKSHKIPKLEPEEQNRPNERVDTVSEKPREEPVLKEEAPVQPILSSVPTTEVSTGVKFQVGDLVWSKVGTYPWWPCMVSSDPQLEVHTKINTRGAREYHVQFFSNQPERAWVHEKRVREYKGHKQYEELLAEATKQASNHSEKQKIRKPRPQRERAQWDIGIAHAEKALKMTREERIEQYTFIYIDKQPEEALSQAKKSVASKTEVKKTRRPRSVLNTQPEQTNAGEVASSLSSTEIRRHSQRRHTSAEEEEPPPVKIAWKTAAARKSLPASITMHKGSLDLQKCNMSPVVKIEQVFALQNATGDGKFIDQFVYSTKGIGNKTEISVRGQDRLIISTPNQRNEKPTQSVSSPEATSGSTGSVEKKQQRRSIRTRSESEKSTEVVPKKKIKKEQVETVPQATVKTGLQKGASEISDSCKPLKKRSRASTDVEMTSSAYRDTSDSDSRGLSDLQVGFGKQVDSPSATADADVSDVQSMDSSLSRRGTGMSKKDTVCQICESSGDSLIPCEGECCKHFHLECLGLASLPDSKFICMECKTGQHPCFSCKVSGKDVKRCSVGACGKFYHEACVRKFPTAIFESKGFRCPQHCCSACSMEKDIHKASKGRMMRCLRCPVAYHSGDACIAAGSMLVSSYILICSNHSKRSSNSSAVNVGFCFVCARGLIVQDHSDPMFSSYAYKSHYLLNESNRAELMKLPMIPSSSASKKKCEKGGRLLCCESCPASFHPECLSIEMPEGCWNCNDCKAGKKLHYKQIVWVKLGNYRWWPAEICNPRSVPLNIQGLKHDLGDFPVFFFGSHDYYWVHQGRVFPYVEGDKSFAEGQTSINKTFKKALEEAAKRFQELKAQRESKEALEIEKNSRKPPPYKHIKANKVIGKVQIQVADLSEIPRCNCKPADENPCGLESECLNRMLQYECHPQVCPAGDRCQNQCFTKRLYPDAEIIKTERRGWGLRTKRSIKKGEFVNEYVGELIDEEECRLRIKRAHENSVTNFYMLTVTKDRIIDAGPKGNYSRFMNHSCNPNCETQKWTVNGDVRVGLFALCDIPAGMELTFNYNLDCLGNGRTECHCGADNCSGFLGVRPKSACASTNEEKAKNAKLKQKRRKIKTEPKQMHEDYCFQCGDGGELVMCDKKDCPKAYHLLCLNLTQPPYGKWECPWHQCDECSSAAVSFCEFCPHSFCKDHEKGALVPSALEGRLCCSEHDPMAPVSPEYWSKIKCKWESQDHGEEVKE
- experiment: Methyl transferase scintillation proximity assay
- Format: biochemical
- test settings: average of two measurements, read-out: MTases Inhibition (%)
- Description: Assays measuring lysine and arginine methyl transferase activity have been described in Scheer et al.. A radioactivity-based scintillation proximity assay was used to monitor incorporation of a tritium-labeled methyl group into the biotinylated substrate of the methyl transferase. A 10-μl reaction containing ^3H-SAM and substrate at concentrations close to the apparent Km values for each enzyme was prepared. […] The counts per minute (CPM) was measured on a TopCount plate reader. […]
measured metric: inhibition at 10 µM (%)
Give the quantity in %, number only.

compound: Cc1nnc2c3ccccc3c(N[C@@H](C)[C@H](c3ccccc3)N(C)C)nn12 [L-Moses]
target or test system: NSD3 (Homo sapiens)
measured metric: inhibition at 10 µM
value measured: 5
//
compound: CN1C[C@H](Nc2cnn(C)c(=O)c2Br)C[C@H](c2ccccc2)C1 [GSK4027]
target or test system: NSD3 (Homo sapiens)
measured metric: inhibition at 10 µM
value measured: 10
//
compound: Cc1c(NC(=O)c2cc(C(N)=O)nc3cc(F)ccc23)c(C(F)(F)F)nn1Cc1ccc(C(C)(C)C)cc1 [BAY-588]
target or test system: NSD3 (Homo sapiens)
measured metric: inhibition at 10 µM
value measured: -2
//
compound: CO[C@H]1CNC[C@@H](OCC2CCC(F)(F)CC2)[C@@H]1Nc1ncc(-c2cncc(C)c2)c2cc(C)c(=O)[nH]c12 [GSK8814]
target or test system: NSD3 (Homo sapiens)
measured metric: inhibition at 10 µM
value measured: 13
//
compound: COc1cc(Cl)c(C(=O)N[C@@H](CN[C@H]2CC[C@@H](N)CC2)Cc2ccc(C#N)cc2)cc1-c1ccc(CN[C@H](C)c2ccc(C)cc2)o1 [BAY-850]
target or test system: NSD3 (Homo sapiens)
measured metric: inhibition at 10 µM
value measured: 14
//
compound: Cc1c(NC(=O)c2cc(C(N)=O)nc3cc(F)ccc23)c(C(F)(F)F)nn1Cc1ccc(C#N)cc1 [BAY-876]
target or test system: NSD3 (Homo sapiens)
measured metric: inhibition at 10 µM
value measured: 3

Now look at this entry.
Problem: Recorded inhibition at 10 µM of CN(C)CCCOc1ccc(-c2cc(NCCCn3cccn3)nc(S(C)(=O)=O)n2)cc1 [TP-238] , please.
Result: 15

* * *

In this section we review reported inhibition at 10 µM values for a set of compounds.
- target or test system: BCDIN3D (Homo sapiens)
- Construct: purchased DiscoverX BROMOscan (bromodomains); SGC in-house methyltransferase panel
- Sequence (Q7Z5W3 1-292): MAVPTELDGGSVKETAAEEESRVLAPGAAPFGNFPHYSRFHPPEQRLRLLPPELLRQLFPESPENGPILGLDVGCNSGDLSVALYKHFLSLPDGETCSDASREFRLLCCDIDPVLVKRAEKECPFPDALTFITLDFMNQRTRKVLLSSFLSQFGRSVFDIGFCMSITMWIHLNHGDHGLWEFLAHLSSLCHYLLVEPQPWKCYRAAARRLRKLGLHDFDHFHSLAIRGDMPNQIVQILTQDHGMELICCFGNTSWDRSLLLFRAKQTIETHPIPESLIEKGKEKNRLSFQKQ
- experiment: Methyl transferase scintillation proximity assay
- Assay type: biochemical
- test settings: average of two measurements, read-out: MTases Inhibition (%)
Give the quantity in %, number only.

In the examples that follow, each entry is paired with its recorded inhibition at 10 µM.
smiles entry: CO[C@H]1CNC[C@@H](OCC2CCC(F)(F)CC2)[C@@H]1Nc1ncc(-c2cncc(C)c2)c2cc(C)c(=O)[nH]c12
target or test system: BCDIN3D (Homo sapiens)
value units: %
inhibition at 10 µM: 7
//
smiles entry: Cc1c(NC(=O)c2cc(C(N)=O)nc3cc(F)ccc23)c(C(F)(F)F)nn1Cc1ccc(C#N)cc1
target or test system: BCDIN3D (Homo sapiens)
value units: %
inhibition at 10 µM: 17

Now look at this entry.
Problem: Recorded inhibition at 10 µM of COc1cc(Cl)c(C(=O)N[C@@H](CN[C@H]2CC[C@@H](N)CC2)Cc2ccc(C#N)cc2)cc1-c1ccc(CN[C@H](C)c2ccc(C)cc2)o1 , please.
Result: 28
